molecular target: B-Raf(V599E) kinase (Homo sapiens, UniProt P15056, V600E); assay: B-Raf(V599E) kinase assay B2 (construct 2 at 2 nM, 1 h pre-incubation); assay type: biochemical
Sequence (P15056 433-726 V600E): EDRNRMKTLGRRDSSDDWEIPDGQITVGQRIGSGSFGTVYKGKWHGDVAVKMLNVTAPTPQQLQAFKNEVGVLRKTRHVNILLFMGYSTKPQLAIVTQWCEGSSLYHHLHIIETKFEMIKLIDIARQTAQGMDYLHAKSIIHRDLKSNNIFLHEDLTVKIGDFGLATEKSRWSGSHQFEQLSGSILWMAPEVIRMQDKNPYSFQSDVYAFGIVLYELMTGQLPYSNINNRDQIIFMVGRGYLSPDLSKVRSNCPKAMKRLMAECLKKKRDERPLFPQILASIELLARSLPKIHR
MEASURE: pIC50
// pIC50: -log10(molar conc.)

Previously resolved entries follow.
• CC(C)(C)c1cc(NC(=O)Nc2cccc(Cl)c2Cl)n(-c2ccc3nc[nH]c(=O)c3c2)n1 = 6.53
• Cn1c(=O)c(-c2cccc(NC(=O)Nc3cc(C(C)(C)C)nn3-c3ccc4c(c3)CCN4S(C)(=O)=O)c2)cc2cncnc21 = 7.57

input: // fetch pIC50; item: CC(C)(C)c1cc(NC(=O)Nc2cccc(Cl)c2Cl)n(-c2cccc(-c3n[nH]c(=O)o3)c2)n1 ; system: B-Raf(V599E) kinase (Homo sapiens, UniProt P15056, V600E)
output: 6.82

input: Lab note: record pIC50 of CNC(=O)c1cc(Oc2ccc(NC(=O)Nc3cc(C(C)(C)C)nn3-c3ccc4nc(NC)ccc4c3)cc2)ccn1 tested on B-Raf(V599E) kinase (Homo sapiens, UniProt P15056, V600E).
output: 6.61

input: For B-Raf(V599E) kinase (Homo sapiens, UniProt P15056, V600E), give the measured pIC50 of the entry CC(C)(C)c1cc(NC(=O)Nc2cccc(Cl)c2Cl)n(-c2ccc3cn[nH]c3c2)n1
output: 6.67

input: # assay system B-Raf(V599E) kinase (Homo sapiens, UniProt P15056, V600E): give pIC50 of CNC(=O)c1cc(Oc2ccc(NC(=O)Nc3cc(C(C)(C)C)nn3-c3ccc4nc(N)ccc4c3)cc2)ccn1
output: 7.36

----------
molecular target: B-Raf(V599E) kinase (Homo sapiens, UniProt P15056, V600E); assay: B-Raf(V599E) kinase assay B1 (construct 1, MEK1 substrate, coupled spectrophotometric); assay type: biochemical
Sequence (P15056 with tags, fused parts or gaps V600E): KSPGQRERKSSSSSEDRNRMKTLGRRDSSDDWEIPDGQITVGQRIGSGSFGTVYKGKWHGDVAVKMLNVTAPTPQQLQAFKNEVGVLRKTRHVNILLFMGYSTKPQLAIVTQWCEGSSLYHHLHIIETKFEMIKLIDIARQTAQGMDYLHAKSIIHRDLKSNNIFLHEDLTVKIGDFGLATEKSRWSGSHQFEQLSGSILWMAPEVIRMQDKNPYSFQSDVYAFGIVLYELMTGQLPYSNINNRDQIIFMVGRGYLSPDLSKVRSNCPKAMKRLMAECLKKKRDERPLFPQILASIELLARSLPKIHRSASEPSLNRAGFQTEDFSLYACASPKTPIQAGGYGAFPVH
pIC50: −log10 of the molar value.
Is pIC50 at least 8? Then TRUE. If not, FALSE.

Check out these entries, answers already filled in.
* CC(C)(C)c1cc(NC(=O)Nc2ccsc2)n(-c2ccc3c(c2)CCC(=O)N3)n1 | FALSE
* CC(C)(C)c1cc(NC(=O)Nc2ccccc2Cl)n(-c2ccc3c(c2)C(=O)NCC3)n1 | FALSE
* CNC(=O)c1cc(Oc2ccc(NC(=O)Nc3cc(C(C)(C)C)nn3-c3ccc4nc(N(C)C)ccc4c3)cc2)ccn1 | FALSE
* Cc1ccc(NC(=O)Nc2cc(C(C)(C)C)nn2-c2ccc3c(c2)CCNC3)cc1Nc1ncccn1 | FALSE
* CC(C)(C)c1ncc(NC(=O)Nc2cccc(Cl)c2Cl)c(-c2ccccc2)n1 | FALSE

input: Reported pIC50 at or above 8? CC(C)(C)c1cc(NC(=O)Nc2cc(F)c(F)cc2F)n(-c2ccc3[nH]c(=O)ccc3c2)n1
output: TRUE

input: Is it the case that CC(C)(C)c1cc(NC(=O)Nc2cccc(Cl)c2Cl)n(-c2ccc3c(c2)C(=O)CC3)n1 has pIC50 reaching or exceeding 8?
output: TRUE

input: Please tell me: is the molecule CC(C)(C)c1cc(NC(=O)NC2CCCCC2)n(-c2cc(CC(N)=O)c3ccccc3c2)n1 at or over 8 in terms of pIC50?
output: FALSE

input: I'd appreciate it if you could say whether CC(C)(C)c1cc(NC(=O)Nc2cccc(Cl)c2Cl)n(-c2cccc(CO)c2)n1 has pIC50 at least equal to 8.
output: TRUE

input: Dear colleague, could you confirm whether CC(C)(C)c1cc(NC(=O)Nc2ccc(F)cc2)n(-c2cccc(Cn3c(=O)[nH]n(-c4ccccc4)c3=O)c2)n1 has pIC50 at or above 8?
output: FALSE

input: I'd appreciate it if you could say whether CC(C)(C)c1cc(NC(=O)Nc2ccc3c(c2)OCO3)n(-c2cccc(CO)c2)n1 has pIC50 at least equal to 8.
output: FALSE

input: pIC50 >= 8 for CC(C)(C)c1cc(NC(=O)Nc2cccc(Br)c2)n(-c2cccc(CO)c2)n1 ?
output: FALSE

input: Kindly determine if pIC50 recorded for CC(C)(C)c1cc(NC(=O)Nc2ccc(F)c(F)c2)n(-c2cccc(CC(N)=O)c2)n1 is above or exactly 8.
output: FALSE

----------
molecular target: Abl kinase (Homo sapiens); assay: Abl kinase assay A2 (as A1, 1.1 nM enzyme, 2 h pre-incubation, 0.5 mM ATP); type: biochemical; details: Method A2; read-out: Abl Data (IC50)
Sequence (P00519 229-512): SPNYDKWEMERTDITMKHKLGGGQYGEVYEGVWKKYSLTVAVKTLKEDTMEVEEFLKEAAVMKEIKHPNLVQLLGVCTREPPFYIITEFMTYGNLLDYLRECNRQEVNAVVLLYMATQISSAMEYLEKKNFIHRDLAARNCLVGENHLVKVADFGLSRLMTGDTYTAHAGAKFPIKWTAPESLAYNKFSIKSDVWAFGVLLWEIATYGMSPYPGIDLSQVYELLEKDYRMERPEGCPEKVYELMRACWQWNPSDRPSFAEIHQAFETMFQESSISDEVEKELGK
MEASURE: pIC50
Would you please state pIC50, meaning minus log10 of the concentration in mol/L, as a bare number?

Some solved entries appear below for comparison.
- CC(C)(C)c1cc(NC(=O)Nc2cccc(Oc3cccnc3)c2)n(-c2cc(CO)c3ccccc3c2)n1 [Example 67]: 9.00
- Cn1c(=O)c(-c2cccc(NC(=O)Nc3cc(C4CCCC4)nn3-c3ccc4[nH]c(=O)ccc4c3)c2)cc2cncnc21 [Example 162]: 7.10
- Cn1c(=O)c(-c2cccc(NC(=O)Nc3cc(C(C)(C)C)nn3-c3ccc4c(c3)CCC(=O)N4)c2)cc2cncnc21 [Example 132]: 7.89
- CC(C)(C)c1cc(NC(=O)Nc2cccc(Cl)c2Cl)n(-c2ccc3c(c2)CCNC3)n1 [Example 138]: 7.00
- CC(C)(C)c1cc(NC(=O)Nc2cc(F)cc(F)c2F)n(-c2cc(CO)c3ccccc3c2)n1 [Example 65]: 6.96
- CC(C)(C)c1cc(NC(=O)Nc2cccc(Cl)c2Cl)n(-c2ccc3c(c2)CNCC3)n1 [Example 123]: 6.54
- CC(C)(C)c1cc(NC(=O)Nc2cccc(Oc3cccnc3)c2)n(-c2ccc3c(c2)CC(C(N)=O)NC3)n1 (stereo not drawn) [Example 179]: 8.52
- CC(C)(C)c1cc(NC(=O)Nc2cccc(C#N)c2)n(-c2cc(CN)c3ccccc3c2)n1 [Example 73]: 6.72

input: Give the measured pIC50 for O=C(Nc1cccc(Oc2cccnc2)c1)Nc1cc(C2CCCC2)nn1-c1ccc2[nH]c(=O)ccc2c1 [Example 164]
output: 7.48

----------
Below, each entry is listed with its recorded pIC50.
biological target: Abl kinase (Homo sapiens); assay: Abl kinase assay A1 (pyruvate kinase/lactate dehydrogenase coupled, spectrophotometric); assay type: biochemical; settings: Method A1; read-out: Abl Data (IC50)
Reminder that pIC50 means the negative base-10 logarithm of the concentration expressed in mol/L.

input: Determine reported pIC50 for CC(C)(C)c1cc(NC(=O)Nc2cc(F)cc(F)c2)n(-c2cc(CO)c3ccccc3c2)n1 [Example 59] ; test system: Abl kinase (Homo sapiens).
output: 7.10

input: Output reported pIC50 of the compound CC(C)(C)c1cc(NC(=O)Nc2cc(F)cc(F)c2F)n(-c2cc(CC(N)=O)c3ccccc3c2)n1 [Example 85] on Abl kinase (Homo sapiens).
output: 7.48

----------
biological target: B-Raf(V599E) kinase (Homo sapiens, UniProt P15056, V600E); experiment: B-Raf(V599E) kinase assay B1 (construct 1, MEK1 substrate, coupled spectrophotometric); format: biochemical
MEASURE: pIC50
pIC50 here: minus log base 10 of the concentration, concentration in moles per litre.

Solved entries (count: 4):
- CC(C)(C)c1cc(NC(=O)Nc2cccc(Cl)c2Cl)n(-c2ccc3c(c2)C(=O)NCC3)n1: 7.96
- CC(C)(C)c1cc(NC(=O)Nc2ccc(F)cc2)n(-c2cc(CO)c3ccccc3c2)n1: 8.15
- CC(C)(C)c1cc(NC(=O)Nc2ccc(Cl)cc2)n(-c2cccc(C#N)c2)n1: 8.09
- CC(C)(C)c1cc(NC(=O)Nc2ccc(F)cc2)n(-c2cc(CC(N)=O)c3ccccc3c2)n1: 7.96

input: Please list pIC50 recorded for the compound CCOC(=O)Cc1cc(-n2nc(C(C)(C)C)cc2NC(=O)Nc2cccc(Cl)c2Cl)cc2ccccc12
output: 7.96

----------
Overview of recorded IC50 for various molecules
biological target: KDR kinase (Homo sapiens, UniProt P35968, DEL940-989/E990V); test: KDR kinase assay K2 (as K1, 2.1 nM enzyme, 2 h pre-incubation, 1.0 mM ATP); format: biochemical; conditions: Method K2; read-out: KDR Data (IC50)
Sequence (P35968 with tags, fused parts or gaps DEL940-989/E990V): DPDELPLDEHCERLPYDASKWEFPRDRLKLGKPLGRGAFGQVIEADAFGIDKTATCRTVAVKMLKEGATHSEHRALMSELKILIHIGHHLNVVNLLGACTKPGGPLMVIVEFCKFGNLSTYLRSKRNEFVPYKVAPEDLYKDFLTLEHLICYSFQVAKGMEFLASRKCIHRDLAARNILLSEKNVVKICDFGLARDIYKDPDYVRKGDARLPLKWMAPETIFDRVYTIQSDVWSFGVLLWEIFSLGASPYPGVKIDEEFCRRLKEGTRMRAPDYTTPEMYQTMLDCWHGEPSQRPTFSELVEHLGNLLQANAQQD
I'd appreciate it if you wrote the number followed by its unit.

Would you please look over these solved cases?
* CC(C)(C)c1cc(NC(=O)Nc2ccc(Cl)cc2)n(-c2cccc(CN3C(=O)C(=O)NS3(=O)=O)c2)n1 | 9.6 µM
* CC(C)(C)c1cc(NC(=O)Nc2ccc(Cl)cc2)n(-c2cccc(C#N)c2)n1 | 0.87 µM
* CCOC(=O)C1CCN(C(=O)Cc2cccc(-n3nc(C(C)(C)C)cc3NC(=O)Nc3cccc(Cl)c3Cl)c2)CC1 | 2.7 µM
* CC(C)(C)c1cc(NC(=O)Nc2cccc(Oc3cccnc3)c2)n(-c2ccc3ncccc3c2)n1 | 0.004 µM
* CC(C)(C)c1cc(NC(=O)Nc2ccc(Cl)cc2)n(-c2cnc3ccccc3c2)n1 | 3.1 µM

Let's switch to this molecule now.
input: Please give the documented IC50 of CC(C)(C)c1cc(NC(=O)Nc2cccc(Cl)c2Cl)n(-c2cccc(Br)c2)n1
output: 0.086 µM
